Assay: inhibitors of HIV-1 Env-driven cell-cell fusion, primary screen, HeLa-JRFL effector, CEM21 target cells, luciferase (AID 651610)
Details: at 16.7 µM unless noted
Among all 360,000 compounds or so, about 3,900 (1.1%) were called active.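 The calls were made as follows: active = mean replicate inhibition score of at least 50 and every replicate individually at or above 50; inconclusive = only one of the two criteria met; inactive = mean below 50 and not all replicates reaching 50.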 The entries come from a sample that favours actives as a whole.
Result category, one only: active, inactive

Consider the worked cases shown below.
>>> group_label("CO[C@@H]1CN(C)C(=O)c2cc(NC(=O)C3CCOCC3)ccc2OC[C@H](C)N(C)C[C@H]1C")
"inactive"
>>> group_label("CCc1ccc(N(CC)c2ncnc3nc[nH]c23)cc1")
"active"
>>> group_label("O=C(Cc1ncc(C(F)(F)F)cc1Cl)Nc1cccc(Br)c1")
"inactive"
>>> group_label("CCCCn1nnnc1C(c1ccccc1)N1CCN(c2ccccc2OC)CC1 (stereo not given)")
"inactive"

Look up the recorded call for `O=C(CC(O)(C(F)(F)F)C(F)(F)F)Nc1ccc(Cl)c(Cl)c1` in this test. active
